- System Name: Mitogen-activated protein kinase 9 (Homo sapiens)
- Sequence (P45984 whole entry): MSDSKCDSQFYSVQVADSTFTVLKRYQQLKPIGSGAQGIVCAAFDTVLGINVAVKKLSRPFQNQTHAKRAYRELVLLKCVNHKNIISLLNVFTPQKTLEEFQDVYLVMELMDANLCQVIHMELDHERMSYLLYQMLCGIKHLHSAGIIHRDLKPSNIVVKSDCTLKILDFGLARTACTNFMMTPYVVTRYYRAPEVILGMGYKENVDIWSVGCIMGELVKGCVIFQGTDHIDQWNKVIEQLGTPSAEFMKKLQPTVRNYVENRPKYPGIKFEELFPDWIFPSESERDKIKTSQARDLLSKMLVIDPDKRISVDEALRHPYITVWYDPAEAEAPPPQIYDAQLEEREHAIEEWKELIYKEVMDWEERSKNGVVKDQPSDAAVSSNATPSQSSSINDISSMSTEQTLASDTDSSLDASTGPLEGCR
- Assay Procedure: Inhibition of JNK2

>  <Smi>
Cc1ccc2c(c1)N(Cc1cc(F)cc3c1OCOC3)C(=O)/C2=N\O

>  <System Name>
Mitogen-activated protein kinase 9 (Homo sapiens)

>  <Ki [nM]>
70

$$$$

* * *

- System Name: Mitogen-activated protein kinase 10 (Homo sapiens)
- Sequence (P53779 whole entry): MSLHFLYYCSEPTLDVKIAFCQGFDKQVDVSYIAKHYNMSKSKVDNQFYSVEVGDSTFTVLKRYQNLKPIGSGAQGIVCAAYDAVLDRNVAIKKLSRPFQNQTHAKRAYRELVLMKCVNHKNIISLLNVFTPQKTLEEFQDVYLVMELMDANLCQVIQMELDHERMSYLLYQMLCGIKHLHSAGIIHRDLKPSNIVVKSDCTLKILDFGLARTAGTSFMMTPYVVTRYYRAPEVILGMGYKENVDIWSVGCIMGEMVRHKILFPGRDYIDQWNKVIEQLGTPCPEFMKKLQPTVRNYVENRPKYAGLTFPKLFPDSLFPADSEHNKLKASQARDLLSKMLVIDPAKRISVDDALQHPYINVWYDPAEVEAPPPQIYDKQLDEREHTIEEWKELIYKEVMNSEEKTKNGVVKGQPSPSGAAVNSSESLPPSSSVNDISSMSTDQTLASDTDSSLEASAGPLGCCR
- Assay Procedure: Inhibition of JNK3 by spectrophotometric coupled enzyme assay
Observed Property: Ki (µM)

>  <Smi>
O=C1/C(=N\O)c2c(CCc3ccccc3)cccc2N1Cc1cc(F)cc2c1OCOC2

>  <Unit Tag>
µM

>  <Value Qualifier>
>

>  <Measured Value>
15

$$$$
>  <Smi>
Cc1cccc(CN2C(=O)/C(=N\O)c3cc(C)ccc32)c1

>  <Unit Tag>
µM

>  <Value Qualifier>
>

>  <Measured Value>
10

$$$$
>  <Smi>
O=C(O)c1ccc2c(c1)N(Cc1cc(F)cc3c1OCOC3)C(=O)/C2=N\O

>  <Unit Tag>
µM

>  <Value Qualifier>
=

>  <Measured Value>
0.3

$$$$
>  <Smi>
CCNC(=O)c1ccc2c(c1)N(Cc1cc(F)cc3c1OCOC3)C(=O)/C2=N\O

>  <Unit Tag>
µM

>  <Value Qualifier>
=

>  <Measured Value>
1

$$$$
>  <Smi>
O=C1/C(=N\O)c2cc(OC(F)(F)F)ccc2N1Cc1cc(F)cc2c1OCOC2

>  <Unit Tag>
µM

>  <Value Qualifier>
=

>  <Measured Value>
1.7

$$$$
>  <Smi>
O=C1/C(=N\O)c2cc(F)ccc2N1Cc1ccccc1

>  <Unit Tag>
µM

>  <Value Qualifier>
>

>  <Measured Value>
10

$$$$
>  <Smi>
COc1cc(CN2C(=O)/C(=N\O)c3cc(F)ccc32)cc(OC)c1

>  <Unit Tag>
µM

>  <Value Qualifier>
=

>  <Measured Value>
0.79

$$$$
>  <Smi>
COC(=O)c1cccc2c1/C(=N/O)C(=O)N2Cc1cc(F)cc2c1OCOC2

>  <Unit Tag>
µM

>  <Value Qualifier>
=

>  <Measured Value>
30

$$$$
>  <Smi>
O=C1/C(=N\O)c2ccccc2N1Cc1cccc(F)c1

>  <Unit Tag>
µM

>  <Value Qualifier>
=

>  <Measured Value>
8.1

$$$$
>  <Smi>
COc1ccc(CN2C(=O)/C(=N\O)c3cc(F)ccc32)cc1

>  <Unit Tag>
µM

>  <Value Qualifier>
=

>  <Measured Value>
1.6

$$$$
>  <Smi>
O=C1/C(=N\O)c2ccccc2N1Cc1ccc(F)cc1

>  <Unit Tag>
µM

>  <Value Qualifier>
=

>  <Measured Value>
8.3

$$$$
>  <Smi>
Nc1ccc2c(c1)N(Cc1cc(F)cc3c1OCOC3)C(=O)/C2=N\O

>  <Unit Tag>
µM

>  <Value Qualifier>
=

>  <Measured Value>
0.4

$$$$
>  <Smi>
Cc1ccc2c(c1)/C(=N/O)C(=O)N2Cc1cccc(C(F)(F)F)c1

>  <Unit Tag>
µM

>  <Value Qualifier>
=

>  <Measured Value>
2.7

$$$$
>  <Smi>
O=C1/C(=N\O)c2c(-c3cccc(F)c3)cccc2N1Cc1cc(F)cc2c1OCOC2

>  <Unit Tag>
µM

>  <Value Qualifier>
=

>  <Measured Value>
5.8

$$$$
>  <Smi>
Cc1ccc2c(c1)/C(=N/O)C(=O)N2c1ccccc1

>  <Unit Tag>
µM

>  <Value Qualifier>
>

>  <Measured Value>
30

$$$$
>  <Smi>
CS(=O)(=O)Nc1ccc2c(c1)N(Cc1cc(F)cc3c1OCOC3)C(=O)/C2=N\O

>  <Unit Tag>
µM

>  <Value Qualifier>
=

>  <Measured Value>
0.46

$$$$
